Target: PDL1, Q9NZQ7
Sequence (Q9NZQ7 whole entry): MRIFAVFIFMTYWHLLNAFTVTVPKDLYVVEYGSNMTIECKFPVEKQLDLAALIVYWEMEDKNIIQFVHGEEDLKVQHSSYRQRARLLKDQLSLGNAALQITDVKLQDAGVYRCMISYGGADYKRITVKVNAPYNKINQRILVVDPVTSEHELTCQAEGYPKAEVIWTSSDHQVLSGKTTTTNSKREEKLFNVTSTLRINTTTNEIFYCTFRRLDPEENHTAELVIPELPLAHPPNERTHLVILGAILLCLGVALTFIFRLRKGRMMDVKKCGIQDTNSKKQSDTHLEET
Measure Name: binding in a display sort

Req: I am curious: what binding in a display sort value has been reported for d8r1_design_ppi_723_dldesign_0_cycle0_af2pred (protein) GGKSIAEIARIHGARTAAAVLAETGDAAAAAKIKAVAEKAAKEIEKASDNYDKMAEIFRKMVEEIEKITAAAKAAAA ?
Resp: not found (inactive)

Req: // repeat for d8r1_design_ppi_1212_dldesign_0_cycle1_af2pred (protein) AAALAEKLVATALAIGDAVLKKYPEAFGAKLAAARALIAADPVAGIRALGEAAAEVAPAEIAPGIRSMLNAIADRAAELLA and report
Resp: not found (inactive)

Req: Follow-up item: d8r1_design_ppi_786_dldesign_0_cycle1_af2pred (protein) SEEKEKLKKLAEKARAGAEAAKADPSKAAEYGKEAYELAKEALPESIAELFKKAVEKNPVSGLAFLAAYAKYKAES
Resp: not found (inactive)

Data credit: paper PMC13494018
